Measured pKd by item
- measurement-target: HCV Core 134-171-TT peptide (ALRZ-9 peptide) (HCV-1)
- experiment: SPR, captured mAb;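 further: Anti-HCV Core mAbs from hybridoma supernatants held on a rabbit anti-mouse IgG CM5 surface, peptide flowed over 3 min then 4 min dissociation, duplicate concentrations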
Scale: negative log10 of molar concentration, which is what pKd denotes.

binder	value-observed
HCV 208B-1096 (antibody, V domains shown) VH: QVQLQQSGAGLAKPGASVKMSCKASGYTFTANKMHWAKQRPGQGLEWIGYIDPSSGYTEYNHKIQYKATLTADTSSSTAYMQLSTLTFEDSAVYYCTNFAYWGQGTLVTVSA VL: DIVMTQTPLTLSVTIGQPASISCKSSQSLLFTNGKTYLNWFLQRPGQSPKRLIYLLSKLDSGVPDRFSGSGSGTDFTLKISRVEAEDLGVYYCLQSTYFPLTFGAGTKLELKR	9.34
HCV 208B-589 (antibody, V domains shown) VH: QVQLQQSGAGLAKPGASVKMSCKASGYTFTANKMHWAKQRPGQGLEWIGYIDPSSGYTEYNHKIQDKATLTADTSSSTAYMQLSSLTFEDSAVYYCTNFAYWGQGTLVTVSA VL: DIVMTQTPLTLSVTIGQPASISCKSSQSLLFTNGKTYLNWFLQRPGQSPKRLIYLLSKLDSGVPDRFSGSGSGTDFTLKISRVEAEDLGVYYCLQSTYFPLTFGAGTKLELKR	9.20
HCV 208A-133 (antibody, V domains shown) VH: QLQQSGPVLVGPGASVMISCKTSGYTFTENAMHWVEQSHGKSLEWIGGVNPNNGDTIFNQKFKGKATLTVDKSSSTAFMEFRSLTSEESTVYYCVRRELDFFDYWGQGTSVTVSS VL: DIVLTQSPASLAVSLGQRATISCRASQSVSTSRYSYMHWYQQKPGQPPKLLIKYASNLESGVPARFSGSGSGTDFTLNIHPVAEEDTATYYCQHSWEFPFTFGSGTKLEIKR	9.39
HCV 208A-159 (antibody, V domains shown) VH: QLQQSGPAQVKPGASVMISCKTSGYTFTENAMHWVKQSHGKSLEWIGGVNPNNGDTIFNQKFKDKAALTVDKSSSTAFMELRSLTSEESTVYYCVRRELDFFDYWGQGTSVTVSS VL: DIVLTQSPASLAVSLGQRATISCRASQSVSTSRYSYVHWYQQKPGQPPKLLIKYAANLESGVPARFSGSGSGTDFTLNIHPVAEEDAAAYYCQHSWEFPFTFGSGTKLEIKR	9.35

Now look at this one.
Query: Consider the binder HCV 208B-1024 (antibody, V domains shown) VH: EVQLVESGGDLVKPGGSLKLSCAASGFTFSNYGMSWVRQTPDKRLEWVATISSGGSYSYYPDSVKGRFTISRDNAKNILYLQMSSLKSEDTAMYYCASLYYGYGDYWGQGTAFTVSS VL: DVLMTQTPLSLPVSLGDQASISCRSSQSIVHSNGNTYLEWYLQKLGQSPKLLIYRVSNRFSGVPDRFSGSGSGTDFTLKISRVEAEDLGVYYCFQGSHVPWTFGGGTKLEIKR . State its measured pKd.
Response: 7.82
